FYI, the data here is from patent US8173682B2.

Each entry below carries its recorded IC50.
- Tgt: recombinant human PARP (PARP1) (Homo sapiens, UniProt P09874)
- Construct: Full length human PARP (PARP1) is assembled from PCR fragments; His6 tag with TEV site, from the pFastBac-HTb vector (own knowledge of the vector); made in house; host or cells: insect cells, baculovirus (Bac-to-Bac, Gibco-BRL)
- Sequence (P09874 whole entry, the tested form may be a part): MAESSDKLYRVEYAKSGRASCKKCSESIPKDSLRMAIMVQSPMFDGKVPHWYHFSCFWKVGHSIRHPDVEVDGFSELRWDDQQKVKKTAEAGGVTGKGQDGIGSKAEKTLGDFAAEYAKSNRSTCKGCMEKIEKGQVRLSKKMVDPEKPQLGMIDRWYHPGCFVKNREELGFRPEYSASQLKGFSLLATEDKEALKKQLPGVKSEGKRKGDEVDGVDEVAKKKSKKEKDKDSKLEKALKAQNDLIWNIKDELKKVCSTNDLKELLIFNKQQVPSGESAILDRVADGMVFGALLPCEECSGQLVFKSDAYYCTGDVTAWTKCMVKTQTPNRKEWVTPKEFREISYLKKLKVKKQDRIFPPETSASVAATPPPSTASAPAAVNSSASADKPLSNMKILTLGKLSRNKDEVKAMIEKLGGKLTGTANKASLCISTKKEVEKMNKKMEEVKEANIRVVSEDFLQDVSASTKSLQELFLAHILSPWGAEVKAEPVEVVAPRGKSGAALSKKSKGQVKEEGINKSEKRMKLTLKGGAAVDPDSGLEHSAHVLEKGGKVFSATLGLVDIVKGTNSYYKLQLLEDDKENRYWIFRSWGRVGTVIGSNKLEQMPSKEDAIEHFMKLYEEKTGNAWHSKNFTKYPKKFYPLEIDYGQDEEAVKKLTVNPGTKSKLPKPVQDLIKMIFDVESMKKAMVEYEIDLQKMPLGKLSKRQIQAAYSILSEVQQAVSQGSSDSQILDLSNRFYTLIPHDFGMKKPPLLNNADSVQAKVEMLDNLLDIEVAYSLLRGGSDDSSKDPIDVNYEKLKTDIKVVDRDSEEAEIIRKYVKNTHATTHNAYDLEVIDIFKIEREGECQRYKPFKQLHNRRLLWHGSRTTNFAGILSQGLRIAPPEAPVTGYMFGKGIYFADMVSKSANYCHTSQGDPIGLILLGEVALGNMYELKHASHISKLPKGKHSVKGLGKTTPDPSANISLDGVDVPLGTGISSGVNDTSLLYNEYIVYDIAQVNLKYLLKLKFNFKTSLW
- Assay Explanation: PARP enzyme assay, Method A (radioactivity or 'ELISA' enzyme assay with partially purified enzyme)
- Type: biochemical
- Test Settings: recombinant human PARP preparation, radioactive or ELISA enzyme assay
Where a name gives a salt, the structure may show the parent alone.
Give just the numeric value; µM need not be written.

Examples with their reported IC50 follow.
compound="CCc1cc(-c2ccc(CN3CCC(F)(F)C3)s2)c(C)[nH]c1=O [Example 172, hydrochloride]" result_number=1
compound="CCc1cc(-c2ccc(S(=O)(=O)N3CCCN(C)CC3)o2)c(C)[nH]c1=O [Example 52, hydrochloride]" result_number=0.38
compound="CCc1cc(-c2ccc(CNCc3cccc(Cl)c3)s2)c(C)[nH]c1=O [Example 164, hydrochloride]" result_number=0.69
compound=Cc1[nH]c(=O)c2c(c1-c1cccc(C#N)c1)CCCC2 result_number=0.2
compound="CCc1cc(-c2ccc(S(=O)(=O)NCCCN3CCCC3)o2)c(C)[nH]c1=O [Example 49, hydrochloride]" result_number=0.18

INPUT: For the compound shown here, CCc1cc(-c2ccc(S(=O)(=O)N3CCN(CCN4CCCCC4)CC3)s2)c(C)[nH]c1=O [Example 57, dihydrochloride] , give the reported IC50.
OUTPUT: 5.7

INPUT: For the compound shown here, CCc1cc(-c2ccc(CNCCOc3ccccc3)s2)c(C)[nH]c1=O [Example 146, hydrochloride] , give the reported IC50.
OUTPUT: 0.24

INPUT: For the compound shown here, CCc1cc(-c2ccc(S(=O)(=O)NCC(C)O)s2)c(C)[nH]c1=O (centres unmarked) , give the reported IC50.
OUTPUT: 0.9

###

- Tgt: recombinant human PARP (PARP1) (Homo sapiens)
- Construct: Full length human PARP (PARP1) is assembled from PCR fragments; His6 tag with TEV site, from the pFastBac-HTb vector (own knowledge of the vector); made in house; host or cells: insect cells, baculovirus (Bac-to-Bac, Gibco-BRL)
- Assay Explanation: PARP enzyme assay, Method A (radioactivity or 'ELISA' enzyme assay with partially purified enzyme)
- Format: biochemical
- Test Settings: recombinant human PARP preparation, radioactive or ELISA enzyme assay
Counter-ions that a name gives are not always drawn.
Quantity Name: IC50 (µM)
Give just the numeric value; µM need not be written.

compound="CCc1cc(-c2ccc(CNC(=O)CN3CCCC3)s2)c(C)[nH]c1=O [Example 176, hydrochloride]" quantity_name=IC50 result_number=0.28
compound="CCc1cc(-c2ccc(CN3CCCC(O)C3)s2)c(C)[nH]c1=O (stereo not shown) [Example 126, hydrochloride]" quantity_name=IC50 result_number=0.43
compound=CCc1cc(-c2nnc(C)o2)c(C)[nH]c1=O quantity_name=IC50 result_number=0.72
compound="CCc1cc(-c2ccc(S(=O)(=O)NCc3nccn3C)s2)c(C)[nH]c1=O [Example 80, hydrochloride]" quantity_name=IC50 result_number=0.43
compound=CCc1cc(-c2ccc(S(=O)(=O)NCc3ccc(C)o3)s2)c(C)[nH]c1=O quantity_name=IC50 result_number=10.9
compound="CCc1cc(-c2ccc(CN3CCC4(CC3)OCCO4)s2)c(C)[nH]c1=O [Example 149, hydrochloride]" quantity_name=IC50 result_number=0.79
compound="CCc1cc(-c2ccc(S(=O)(=O)NCCN3CCOCC3)s2)c(C)[nH]c1=O [Example 38, hydrochloride]" quantity_name=IC50 result_number=0.77
compound=CCc1cc(-c2ccc(S(=O)(=O)NCCCN3CCCC3=O)s2)c(C)[nH]c1=O quantity_name=IC50 result_number=1.9

INPUT: For the compound shown here, CCc1cc(-c2ccc(CNCc3ccc(Cl)cc3)s2)c(C)[nH]c1=O [Example 168, hydrochloride] , give the reported IC50.
OUTPUT: 0.4

INPUT: For the compound shown here, `CCc1cc(-c2ccc(S(=O)(=O)N3CCN(c4ccc(F)cc4)CC3)s2)c(C)[nH]c1=O` , give the reported IC50.
OUTPUT: 0.76

INPUT: For the compound shown here, CCc1cc(-c2ccc(S(=O)(=O)N3CCC(O)C3)s2)c(C)[nH]c1=O (stereo not shown) , give the reported IC50.
OUTPUT: 0.31

INPUT: For the compound shown here, CCc1cc(-c2ccc(CNC(C)c3ccccc3)s2)c(C)[nH]c1=O (stereo not shown) [Example 135, hydrochloride] , give the reported IC50.
OUTPUT: 0.35

INPUT: For the compound shown here, CCc1cc(-c2ccc(CNC3CCN(CC4CCCCC4)CC3)s2)c(C)[nH]c1=O [Example 132, dihydrochloride] , give the reported IC50.
OUTPUT: 1.3

INPUT: For the compound shown here, `CCc1cc(-c2ccc(S(N)(=O)=O)s2)c(C)[nH]c1=O` , give the reported IC50.
OUTPUT: 0.21

INPUT: For the compound shown here, CCc1cc(-c2ccc(S(=O)(=O)NCCN3CCOCC3)o2)c(C)[nH]c1=O [Example 47, hydrochloride] , give the reported IC50.
OUTPUT: 0.89

INPUT: For the compound shown here, CCc1cc(-c2ccc(CN3CCCCC3)s2)c(C)[nH]c1=O [Example 148, hydrochloride] , give the reported IC50.
OUTPUT: 0.41
